Assign Km to each entry below.
tested on: LacHU1; construct: native secreted enzyme purified from culture liquid; signal peptide of 18 residues; assay: initial-rate oxidation assay, Michaelis-Menten fit; type: biochemical, Alternaria sp. HU; details: free enzyme; apparent constant; read-out: Kinetic Parameters / KM, μM / LacHU1
Numbers only, in µM.

Example results:
O=c1c(O)c(-c2ccc(O)c(O)c2)oc2cc(O)ccc12 ... 15
COc1cc(/C=C/C(=O)O)ccc1O ... 50
COc1cc(C=NN=Cc2cc(OC)c(O)c(OC)c2)cc(OC)c1O ... 1

Please state Km for every compound in the list that follows.
1. OCCN1c2ccccc2Oc2ccccc21 [2-(10H-phenoxazin-10-yl)ethanol]
2. O=c1c(O)c(-c2ccc(O)c(O)c2)oc2cc(O)cc(O)c12

Result block:
1: 40; 2: 2

###

Tested on: LacHU1
Construct: native secreted enzyme purified from culture liquid; signal peptide of 18 residues
Assay: initial-rate oxidation assay, Michaelis-Menten fit
Type: biochemical, Alternaria sp. HU
Conditions: free enzyme; apparent constant; read-out: Kinetic Parameters / KM, μM / LacHU1
Text: initial-rate oxidation assay, Michaelis-Menten fit on LacHU1
Threshold rule: Km greater than or equal to 40 µM is Fulfilled; below that, Not fulfilled.

Examples from the recorded data:
COc1cccc(OC)c1O ... Not fulfilled
CCn1c(=NN=c2sc3cc(S(=O)(=O)O)ccc3n2CC)sc2cc(S(=O)(=O)O)ccc21 ... Fulfilled
O=c1c(O)c(-c2cc(O)c(O)c(O)c2)oc2cc(O)cc(O)c12 ... Not fulfilled

Query block: I'd appreciate it if you could say whether O=C(O)/C=C/c1ccc(O)c(O)c1 has Km at least equal to 40 µM.
Result block: Fulfilled

###

test system: LacHU2; construct: native secreted enzyme purified from culture liquid; signal peptide of 18 residues; experiment: initial-rate oxidation assay, Michaelis-Menten fit; format: biochemical, Alternaria sp. HU; details: free enzyme; apparent constant; read-out: Kinetic Parameters / KM, μM / LacHU2
Structures can show the parent of a compound that is named as a salt.
measured.parameter: log10 Km (log10 of the value in µM)
Recall that a logarithmic scale is used here: each number is log10 of Km in µM.

COc1cc(/C=C/C(=O)O)ccc1O [Ferulic acid] ... 2.36
Nc1ccc(N)cc1 [p-Phenylenediamine] ... 3.56
CCn1c(=NN=c2sc3cc(S(=O)(=O)O)ccc3n2CC)sc2cc(S(=O)(=O)O)ccc21 [ABTS] ... 3.75
Oc1ccccc1O [Catechol] ... 4.30
O=C(O)/C=C/c1ccc(O)c(O)c1 [Caffeic acid] ... 2.60

Please state log10 Km for every compound in the list that follows.
1. O=C(/C=C/c1ccc(O)c(O)c1)O[C@@H]1C[C@](O)(C(=O)O)C[C@@H](O)[C@H]1O [Chlorogenic acid]
2. OCCN1c2ccccc2Oc2ccccc21 [2-(10H-phenoxazin-10-yl)ethanol]
3. CN(C)CCCN1c2ccccc2Sc2ccccc21 [Promazine hydrochloride]
4. Oc1ccc(O)cc1 [Hydroquinone]
5. COc1cccc(OC)c1O [2,6-DMP]

Result block:
1.95
2.30
3.41
4.11
3.63
